- study target: Acetylcholinesterase (Mus musculus, UniProt P21836)
- Sequence (P21836 whole entry): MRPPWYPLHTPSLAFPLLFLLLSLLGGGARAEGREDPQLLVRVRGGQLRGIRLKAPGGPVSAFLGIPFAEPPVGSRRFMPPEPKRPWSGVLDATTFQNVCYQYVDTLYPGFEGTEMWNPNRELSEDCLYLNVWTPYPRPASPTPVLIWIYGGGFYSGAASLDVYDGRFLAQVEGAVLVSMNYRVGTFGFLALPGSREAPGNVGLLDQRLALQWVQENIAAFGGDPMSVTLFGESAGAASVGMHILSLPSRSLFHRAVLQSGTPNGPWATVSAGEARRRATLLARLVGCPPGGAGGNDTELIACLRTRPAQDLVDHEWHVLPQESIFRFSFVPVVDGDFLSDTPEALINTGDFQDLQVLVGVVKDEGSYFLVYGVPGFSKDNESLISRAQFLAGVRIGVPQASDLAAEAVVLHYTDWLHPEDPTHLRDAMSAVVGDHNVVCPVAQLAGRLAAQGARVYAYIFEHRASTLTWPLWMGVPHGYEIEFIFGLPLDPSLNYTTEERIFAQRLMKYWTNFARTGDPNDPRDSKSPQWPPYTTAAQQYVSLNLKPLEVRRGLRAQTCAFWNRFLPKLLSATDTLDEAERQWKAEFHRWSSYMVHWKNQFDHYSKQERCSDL
- run description: Inhibition of AChE in mouse brain
- Format: tissue-based
outcome measure: pIC50
Notebook: values listed as pIC50 are -log10 of the concentration (mol/L).

Inquiry: Data request, read-out pIC50, for Fc1ccc(N2CCN(c3c4ccccc4nc4c(Cl)cccc34)CC2)cc1
Reply text: 6.48
